# tgt: T1, pm3 (Y17 sulfated; Y15 and Y16 not sulfated)
# T1 construct: also called sulfated CCR8 N-terminal peptide pm3
# assay method text: ELISA on coated peptide [cont.]

>  <binder>
anti-CCR8 mAb 1-13 (antibody, V domains shown, Murine hybridoma mAb) VH: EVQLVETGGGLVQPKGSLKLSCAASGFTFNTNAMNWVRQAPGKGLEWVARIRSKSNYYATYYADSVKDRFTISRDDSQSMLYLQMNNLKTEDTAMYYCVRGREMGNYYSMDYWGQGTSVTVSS VL: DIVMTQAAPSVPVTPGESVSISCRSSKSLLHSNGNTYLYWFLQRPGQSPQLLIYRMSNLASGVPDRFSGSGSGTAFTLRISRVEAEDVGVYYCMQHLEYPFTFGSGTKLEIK

>  <binding result>
binds

$$$$
>  <binder>
anti-CCR8 mAb 1-4 (antibody, V domains shown, Murine hybridoma mAb) VH: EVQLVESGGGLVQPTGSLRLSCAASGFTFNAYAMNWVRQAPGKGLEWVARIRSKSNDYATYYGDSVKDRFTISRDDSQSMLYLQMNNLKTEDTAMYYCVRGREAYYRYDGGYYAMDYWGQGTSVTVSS VL: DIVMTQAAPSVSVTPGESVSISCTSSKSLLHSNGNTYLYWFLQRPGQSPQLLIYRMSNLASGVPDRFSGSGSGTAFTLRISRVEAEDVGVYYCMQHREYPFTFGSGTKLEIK

>  <binding result>
binds

$$$$
>  <binder>
anti-CCR8 mAb 1-3 (antibody, V domains shown, Murine hybridoma mAb) VH: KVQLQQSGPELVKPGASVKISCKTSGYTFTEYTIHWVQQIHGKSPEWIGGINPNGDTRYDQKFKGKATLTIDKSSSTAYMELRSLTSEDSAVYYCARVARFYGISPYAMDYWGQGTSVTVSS VL: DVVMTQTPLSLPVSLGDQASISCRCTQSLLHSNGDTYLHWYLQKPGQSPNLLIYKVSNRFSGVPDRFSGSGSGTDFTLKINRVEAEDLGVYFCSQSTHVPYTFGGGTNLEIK

>  <binding result>
binds

$$$$
